B1: KRT18 (parent)
chain: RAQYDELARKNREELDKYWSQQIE

- Variants of: B1
- measurementDescription: protein stability index of a GFP-peptide fusion (GPS, HEK-293T) (PSI 1-6); higher = more stable;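 note: lentivirally expressed fusions sorted by FACS into six bins by GFP to DsRed ratio, PSI derived from sequencing read proportions per bin multiplied by bin number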
- conditionNotes: c terminus: a fixed tail appended

| querySequence | protein stability index |
| --- | --- |
| RAQYDELARKNREEQDKYWSQQIE | 4.71 |
| RAQYDELARKNREELDKYWSQQPE | 4.96 |
| RMQYDELARKNREELDKYWSQQIE | 2.65 |
